Numbers sourced from the supplement of paper PMC11061612.

Here the recorded combination Emax is given for each entry.
tested on: M059J (Glioblastoma); test: combination Emax (second highest fraction inhibited in the dose matrix, 72 h); higher = more inhibition; extreme values may be limits of the assay
value_kind: combination Emax

# compound, value_reported
data = [
    ("Cc1c2c(nn1C)CSCc1cc(n(C)n1)CSc1cc(c3ccccc3c1)OCCCc1c(C(=O)O)n(C)c3c-2c(Cl)ccc13 [AZD5991] + C1CN(CCC1(C(=O)N[C@@H](CCO)C2=CC=C(C=C2)Cl)N)C3=NC=NC4=C3C=CN4 [Capivasertib] (first compound max 1 µM, 7x7, partner max 3 µM)", 0.44),
    ("NC1(C(=O)N[C@@H](CCO)c2ccc(Cl)cc2)CCN(c2ncnc3[nH]ccc23)CC1 [Capivasertib] + CC(C)n1c(=O)n(C)c2cnc3cc(F)c(-c4ccc(OCCCN5CCCCC5)nc4)cc3c21 [AZD1390] (first compound max 10 µM, 7x7, partner max 0.3 µM)", 0.512),
]

###

test system: MOG-G-CCM (Low Grade Glioma); experiment: Bliss excess, mean over the matrix (fraction); higher = more synergy

# compound, assay_target, Bliss excess
records = [
    ("CC1(C)CCC(CN2CCN(c3ccc(C(=O)NS(=O)(=O)c4ccc(NCC5CCOCC5)c([N+](=O)[O-])c4)c(Oc4cnc5[nH]ccc5c4)c3)CC2)=C(c2ccc(Cl)cc2)C1 [Venetoclax] + Cn1cnc2c(F)c(Nc3ccc(Br)cc3Cl)c(C(=O)NOCCO)cc21 [Selumetinib] (first compound max 1 µM, 7x7, partner max 3 µM)", "MOG-G-CCM (Low Grade Glioma)", -0.0697),
    ("COc1nnc2ccc(N3CCC(c4ccc(OCCN5CCN(C)C(=O)[C@H]5C)cc4)CC3)nn12 [AZD5153] + Cc1c2c(nn1C)CSCc1cc(n(C)n1)CSc1cc(c3ccccc3c1)OCCCc1c(C(=O)O)n(C)c3c-2c(Cl)ccc13 [AZD5991] (first compound max 1 µM, 7x7, partner max 1 µM)", "MOG-G-CCM (Low Grade Glioma)", 0.0248),
    ("C[C@@H](Nc1cc(F)cc(F)c1)c1cc(C(=O)N(C)C)cc2c(=O)cc(N3CCOCC3)oc12 [AZD8186] + CC(=O)c1c(C)c2cnc(Nc3ccc(N4CCNCC4)cn3)nc2n(C2CCCC2)c1=O [Palbociclib] (first compound max 10 µM, 7x7, partner max 10 µM)", "MOG-G-CCM (Low Grade Glioma)", 0.0077),
]

###

Here the recorded Bliss excess is given for each entry.
tested on: JHH-4 (Hepatocellular Carcinoma); experiment: Bliss excess, mean over the matrix (fraction); higher = more synergy

# compound, Bliss excess
data = [
    ("COc1cccc2c1C(=O)c1c(O)c3c(c(O)c1C2=O)C[C@@](O)(C(=O)CO)C[C@@H]3O[C@H]1C[C@H](N)[C@H](O)[C@H](C)O1 [Doxorubicin] + Cc1cc2ncnn2cc1Nc1ncc2c(n1)n(C1CCOCC1)c(=O)n2C [AZD7648] (first compound max 1 µM, 7x7, partner max 10 µM)", 0.0376),
    ("Cc1c2c(nn1C)CSCc1cc(n(C)n1)CSc1cc(c3ccccc3c1)OCCCc1c(C(=O)O)n(C)c3c-2c(Cl)ccc13 [AZD5991] + C[C@@H]1COCCN1C2=NC(=NC(=C2)C3(CC3)[S@](=N)(=O)C)C4=C5C=CNC5=NC=C4 [AZD6738] (first compound max 1 µM, 7x7, partner max 10 µM)", 0.0496),
    ("NC1(C(=O)N[C@@H](CCO)c2ccc(Cl)cc2)CCN(c2ncnc3[nH]ccc23)CC1 [Capivasertib] + CC(C)n1c(=O)n(C)c2cnc3cc(F)c(-c4ccc(OCCCN5CCCCC5)nc4)cc3c21 [AZD1390] (first compound max 10 µM, 7x7, partner max 0.3 µM)", -0.0504),
    ("COc1nnc2ccc(N3CCC(c4ccc(OCCN5CCN(C)C(=O)[C@H]5C)cc4)CC3)nn12 [AZD5153] + C=CCn1c(=O)c2cnc(Nc3ccc(N4CCN(C)CC4)cc3)nc2n1-c1cccc(C(C)(C)O)n1 [AZD1775] (first compound max 1 µM, partner max 1 µM)", 0.0205),
    ("NC1(C(=O)N[C@@H](CCO)c2ccc(Cl)cc2)CCN(c2ncnc3[nH]ccc23)CC1 [Capivasertib] + CC(=O)c1c(C)c2cnc(Nc3ccc(N4CCNCC4)cn3)nc2n(C2CCCC2)c1=O [Palbociclib] (first compound max 10 µM, 7x7, partner max 10 µM)", -0.0242),
    ("COc1cc2ncnc(Nc3ccc(F)c(Cl)c3)c2cc1OCCCN1CCOCC1 [Gefitinib] + CC(C)n1c(=O)n(C)c2cnc3cc(F)c(-c4ccc(OCCCN5CCCCC5)nc4)cc3c21 [AZD1390] (first compound max 10 µM, 7x7, partner max 0.3 µM)", -0.0751),
    ("C[C@@H](c1ccc2nccn2c1)n1nnc2ncc(-c3cnn(C)c3)nc21 [Savolitinib] + CN(CC[C@H](CSC1=CC=CC=C1)NC2=C(C=C(C=C2)S(=O)(=O)NC(=O)C3=CC=C(C=C3)N4CCC(CC4)[C@H](C5=CC=CC=C5C6=CC=C(C=C6)Cl)O)S(=O)(=O)C(F)(F)F)CCO [AZD4320] (first compound max 1 µM, 7x7, partner max 1 µM)", -0.0309),
]
